Value source: patent US20140187548A1

molecular target: human kinase Mps-1 (Homo sapiens); construct: N-terminally GST-tagged human full length recombinant Mps-1 kinase; GST (N); assay: Mps-1 kinase assay (TR-FRET); conditions: N-terminally GST-tagged human full length recombinant Mps-1; 10 μM ATP; 1 μM peptide substrate; 15 min pre-incubation; 60 min at 22° C.
IC50 overview
Answer format: numeric, nM implied, no suffix.

Answered examples (5):
Molecule	IC50 (nM)
O=C(NC1CC1)c1ccc(-c2cnc3c(NCCN4CCNC4=O)nc(-c4ccccc4)cn23)cc1	20
CC(C)CNc1nc(-c2ccccc2CO)cn2c(-c3ccc(C(=O)NC4CC4)c(F)c3)cnc12	3
CC(C)CNc1nc(-c2cccc(C(=O)Nc3ccccc3)c2)cn2c(-c3ccc(C(=O)NC4CC4)cc3)cnc12	10.4
COc1cccc(-c2cn3c(-c4ccc(C(=O)NC5CC5)cc4)cnc3c(NCC(C)C)n2)c1OC	14.4
O=C(NC1CC1)c1ccc(-c2cnc3c(NCc4cccnc4)nc(-c4ccccc4)cn23)cc1	2.2

Lab book: IC50 of `Cc1ccc(-c2cn3c(-c4ccc(C(=O)NC5CC5)cc4)cnc3c(NCC(C)C)n2)cc1` noted as 5.7

Lab book: IC50 of Cc1cc(-c2cnc3c(NCC4CCOC4)nc(-c4ccc(F)cc4)cn23)ccc1C(=O)NC1CC1 (stereo not shown) noted as 3.3

* * *

target: human kinase Mps-1 (Homo sapiens, UniProt P33981); construct: N-terminally GST-tagged human full length recombinant Mps-1 kinase; GST (N); test: Mps-1 kinase assay (TR-FRET); details: N-terminally GST-tagged human full length recombinant Mps-1; 10 μM ATP; 1 μM peptide substrate; 15 min pre-incubation; 60 min at 22° C.
Sequence (P33981 whole entry): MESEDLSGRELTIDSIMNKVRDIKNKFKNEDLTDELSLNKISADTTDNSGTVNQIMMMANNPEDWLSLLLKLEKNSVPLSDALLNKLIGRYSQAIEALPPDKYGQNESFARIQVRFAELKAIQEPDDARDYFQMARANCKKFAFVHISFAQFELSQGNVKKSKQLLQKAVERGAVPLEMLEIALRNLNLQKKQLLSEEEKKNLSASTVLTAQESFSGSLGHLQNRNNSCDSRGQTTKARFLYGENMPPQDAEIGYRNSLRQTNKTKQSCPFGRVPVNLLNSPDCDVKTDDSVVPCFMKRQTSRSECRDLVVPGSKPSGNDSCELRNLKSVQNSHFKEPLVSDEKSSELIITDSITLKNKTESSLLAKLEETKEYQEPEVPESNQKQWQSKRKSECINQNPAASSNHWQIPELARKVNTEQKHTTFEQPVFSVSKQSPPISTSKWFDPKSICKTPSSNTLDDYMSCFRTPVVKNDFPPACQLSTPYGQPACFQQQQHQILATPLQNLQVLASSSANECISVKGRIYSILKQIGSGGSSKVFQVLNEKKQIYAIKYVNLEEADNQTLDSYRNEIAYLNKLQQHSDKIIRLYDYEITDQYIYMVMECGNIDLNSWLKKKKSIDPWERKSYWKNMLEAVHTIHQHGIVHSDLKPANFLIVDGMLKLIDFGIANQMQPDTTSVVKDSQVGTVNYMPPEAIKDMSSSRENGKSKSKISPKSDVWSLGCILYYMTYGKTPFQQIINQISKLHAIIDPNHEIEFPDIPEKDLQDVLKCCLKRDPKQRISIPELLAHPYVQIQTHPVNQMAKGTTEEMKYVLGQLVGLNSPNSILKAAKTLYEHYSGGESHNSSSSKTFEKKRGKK
IC50 overview
Answer format: numeric, nM implied, no suffix.

Answered examples (10):
Molecule	Recorded Result
O=C(NC1CC1)c1ccc(-c2cnc3c(NCCc4ccccc4)nc(-c4ccccc4)cn23)cc1 [Example 2-7]	25
CC(=O)c1ccc(-c2cn3c(-c4ccc(C(=O)NC5CC5)cc4)cnc3c(NCC(C)C)n2)cc1 [Example 1-48]	1.1
CCC(C)c1cn2c(-c3ccc(C(=O)NC4CC4)cc3)cnc2c(NCC(C)C)n1 (stereo not drawn) [Example 11-1]	5.4
CC(C)CNc1nc(-c2ccccc2)c(Br)n2c(-c3ccc(C(=O)NC4CC4)cc3)cnc12 [Example 4-1]	26.2
O=C(NC1CC1)c1ccc(-c2cnc3c(NCCC(F)(F)F)nc(-c4ccc(F)cc4)cn23)cc1F [Example 1-112]	2.6
CC(C)(O)CNc1nc(-c2ccc(F)cc2)cn2c(-c3ccc(C(=O)NC4CC4)cc3)cnc12 [Example 1-131]	1.6
CN(C)c1ccc(CNc2nc(-c3ccccc3)cn3c(-c4ccc(C(=O)NC5CC5)cc4)cnc23)cc1 [Example 2-44]	18.1
Cc1ccc(-c2cn3c(-c4ccc(C(=O)NC5CC5)cc4)cnc3c(NCC(C)C)n2)cc1Cl [Example 1-80]	20.7
CC(C)CNc1nc(-c2ccc(C(=O)NC3CC3)cc2)cn2c(-c3ccc(C(=O)NC4CC4)cc3)cnc12 [Example 1-30]	1.5
CC(C)CNc1nc(-c2ccccc2C(F)(F)F)cn2c(-c3ccc(C(=O)NC4CC4)cc3)cnc12 [Example 1-43]	16.3

Lab book: IC50 of CC(C)CNc1nc(-c2cccc(S(N)(=O)=O)c2)cn2c(-c3ccc(C(=O)NC4CC4)cc3)cnc12 [Example 1-129] noted as 1.9

Lab book: IC50 of CC(=O)NCCNc1nc(-c2ccccc2)cn2c(-c3ccc(C(=O)NC4CC4)cc3)cnc12 [Example 2-19] noted as 8.1

Lab book: IC50 of CCOC(C)CNc1nc(-c2ccccc2)cn2c(-c3ccc(C(=O)NC4CC4)cc3)cnc12 (stereo not drawn) [Example 2-57] noted as 2.3

Lab book: IC50 of CC(C)CNc1nc(-c2ccc(OCC(C)C)cc2)cn2c(-c3ccc(C(=O)NC4CC4)cc3)cnc12 [Example 1-81] noted as 347

Lab book: IC50 of CNC(=O)c1ccc(-c2cn3c(-c4ccc(C(=O)NC5CC5)cc4)cnc3c(NCC(C)C)n2)cc1Cl [Example 1-82] noted as 1.6
